STUDY_TARGET: EGFR on EGFR positive non-small cell lung cancer cells NCI-H1650 (UniProt P00533 25-1210)
PROTOCOL_NOTES: cell-based or functional assay
Lab note: cut-off is 1 µg/mL. Strictly less in H1650 GFP Flourescence EC50 is condition met. Exactly 1 µg/mL or more is condition not met.

Below are worked cases with known answers.
>  <BINDER>
AbK-LB (antibody, human IgG1, kappa, V domains shown, synthon LB on reduced interchain cysteines; average DAR 1.8 per ADC) VH: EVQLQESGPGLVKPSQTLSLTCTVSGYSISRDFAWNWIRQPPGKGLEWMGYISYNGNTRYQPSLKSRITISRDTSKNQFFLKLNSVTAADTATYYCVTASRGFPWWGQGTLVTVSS VL: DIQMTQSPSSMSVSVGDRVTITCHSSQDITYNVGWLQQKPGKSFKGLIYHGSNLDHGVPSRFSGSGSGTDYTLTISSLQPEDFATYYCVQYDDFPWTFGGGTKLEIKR

>  <ASSIGNED_CLASS>
condition not met

$$$$
>  <BINDER>
AbK-ZT (antibody, human IgG1, kappa, V domains shown, synthon ZT on reduced interchain cysteines; average DAR 1.3 per ADC) VH: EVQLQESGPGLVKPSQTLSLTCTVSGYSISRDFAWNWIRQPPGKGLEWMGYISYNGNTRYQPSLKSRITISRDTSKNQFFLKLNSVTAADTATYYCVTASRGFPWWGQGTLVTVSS VL: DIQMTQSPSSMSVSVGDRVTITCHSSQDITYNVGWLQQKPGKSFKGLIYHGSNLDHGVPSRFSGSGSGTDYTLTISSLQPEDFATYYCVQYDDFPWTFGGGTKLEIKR

>  <ASSIGNED_CLASS>
condition met

$$$$
>  <BINDER>
AbK-TX (antibody, human IgG1, kappa, V domains shown, synthon TX on reduced interchain cysteines; average DAR 2.2 per ADC) VH: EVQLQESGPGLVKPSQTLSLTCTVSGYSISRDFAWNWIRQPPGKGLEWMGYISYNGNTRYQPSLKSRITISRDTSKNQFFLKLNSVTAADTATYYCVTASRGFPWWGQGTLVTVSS VL: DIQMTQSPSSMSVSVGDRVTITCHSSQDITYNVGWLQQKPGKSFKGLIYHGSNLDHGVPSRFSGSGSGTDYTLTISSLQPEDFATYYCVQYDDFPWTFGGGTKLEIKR

>  <ASSIGNED_CLASS>
condition not met

$$$$

Is H1650 GFP Flourescence EC50 of AbA-YG (antibody, human IgG1, kappa, V domains shown, synthon YG on reduced interchain cysteines; average DAR 1.9 per ADC) VH: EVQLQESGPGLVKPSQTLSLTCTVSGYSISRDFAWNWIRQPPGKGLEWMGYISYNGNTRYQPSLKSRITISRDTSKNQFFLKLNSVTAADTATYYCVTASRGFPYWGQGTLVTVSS VL: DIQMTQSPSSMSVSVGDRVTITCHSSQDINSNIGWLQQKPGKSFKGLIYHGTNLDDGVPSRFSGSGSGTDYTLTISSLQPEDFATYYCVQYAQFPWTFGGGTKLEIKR strictly below 1 µg/mL? condition not met
